I'd be grateful if you could share measured Keratinocytes (HaCaT) LDH for these entries.
- Test system: Keratinocytes (HaCaT)
- ASSAY_SUMMARY: Safety, LDH test in keratinocytes
- Assay type: cell-based
- TEST_CONDITIONS: 250 µM; 48 hours; positive control Triton X-100

Query string: What Keratinocytes (HaCaT) LDH appears in the records for this molecule with Keratinocytes (HaCaT)? O=C(/C=C/c1ccc(Cl)cc1)NCCCCCO [Compound A-111]
Result string: 13.55 percentage of positive control

Query string: Request: O=C(/C=C/c1ccc(Cl)cc1)NCCO [H-427/21]
Result string: 17.79 percentage of positive control

Query string: Also, O=C(/C=C/c1ccc(Cl)cc1)NCCCO [H-330/21] please.
Result string: 24.24 percentage of positive control

Query string: Same thing, different molecule: O=C(/C=C/c1ccccc1)NCCCCCO [Compound A-133]
Result string: 19.58 percentage of positive control

Query string: Request: Cc1ccc(/C=C/C(=O)NCCCCCO)cc1 [H-415/21]
Result string: 18.19 percentage of positive control
